Biological target: Human Rac1 (residues 1-177), GMPPNP-loaded (human, UniProt P63000 1-177)
Experiment: ITC; 35 °C, GMPPNP-loaded Rac1 (average)
quantity.measured: Kd (µM)

binder	numeric.result
POSH_(315-380), shorter construct of human POSH comprising MRE1 and MRE2 (domain or fragment) GHMWSQASQNRHSMEISPPVLISSSNPTAAARISELSGLSCSAPSQVHISTTGLIVTPPPSSPVTTGPSF	21.7

Data origin, for the record: paper PMC12728182
